Please respond with reported nonsense suppression for every item in the list.
B1: tRNA (parent)
chain: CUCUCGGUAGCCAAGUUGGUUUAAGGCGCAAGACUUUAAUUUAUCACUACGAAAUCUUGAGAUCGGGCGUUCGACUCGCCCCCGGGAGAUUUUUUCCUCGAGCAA

# Variants of: B1
# Method: nonsense suppression (GFP-seq) (ratio to wild type); higher = more function; SUP4oc tRNA, yeast GFP reporter sort-seq
Variants at the floor of the assay were thinned out.

{"Mutant id": "U22C A54C", "nonsense suppression": 1.2}
{"Mutant id": "A13G A31G", "nonsense suppression": 0.149}
{"Mutant id": "A9U G10A", "nonsense suppression": 0.0292}
{"Mutant id": "U8A G25A", "nonsense suppression": "≤ 0.026"}

Please report nonsense suppression for every entry that follows.
1. A60C G85C
2. G15U A24G G86C
3. C29U A87G
4. U4C C11A A33G A74U
5. C11U A30G A31U U35G G67C U76C
6. G7C U76C
7. A33G U57A U76C

Completion:
1: 0.0595; 2: ≤ 0.026; 3: 0.438; 4: ≤ 0.026; 5: ≤ 0.026; 6: ≤ 0.026; 7: ≤ 0.026
